The reported measurements were obtained from BigSolDB 2.1.

Conditions: in isopropanol, 283.15 K
Observation type: solubility (mole fraction)
Please respond with just the number, no unit label.

Quick note, solubility (mole fraction) for CC(=O)Nc1ccc(OC(=O)c2ccccc2OC(C)=O)cc1 landed at 0.000107

* * *

Conditions: in DMF, 278.15 K
Observation type: solubility (mole fraction)
Just the number.

// solubility (mole fraction) lookup, compound = CC(=O)Nc1ccc(OC(=O)c2ccccc2OC(C)=O)cc1 , result: 0.0172

* * *

Conditions: in n-butanol, 278.15 K
Observation type: solubility (mole fraction)
Lab note: jot down the number only; don't add units.

Briefly, solubility (mole fraction) measured for CC(=O)Nc1ccc(OC(=O)c2ccccc2OC(C)=O)cc1 : 0.000179
